Source of measurements: paper PMC10652724

Test system: T. congolense IL3000
Assay: In vitro trypanocidal activity, bloodstream forms, CellTiter-Glo
Type: cell-based, Trypanosoma congolense
Settings: Trypanosoma congolense, 72 h, read-out: trypanocidal activity IC50 ± SD
PARAMETER MEASURED: pIC50
Quick note: pIC50 means taking -log10 of the concentration in moles per liter.

pIC50 recorded for this compound, O=C1CN(/N=C/c2ccc([N+](=O)[O-])o2)C(=O)N1 , is 6.38

====

System: T. evansi Tansui
Test: In vitro trypanocidal activity, bloodstream forms, CellTiter-Glo
Assay type: cell-based, Trypanosoma evansi
Details: Trypanosoma evansi, 72 h, read-out: trypanocidal activity IC50 ± SD
PARAMETER MEASURED: IC50 (nM)
Report the figure in nM without appending any unit label.

IC50 recorded for this compound, O=C1CN(/N=C/c2ccc([N+](=O)[O-])o2)C(=O)N1 , is 1670

====

Experiment: In vitro cytotoxicity, Cell Counting Kit-8
Format: cell-based
Conditions: bovine, MDBK cells (Madin–Darby bovine kidney)
PARAMETER MEASURED: CC50 at 72 h
Mention the unit after the number when you answer.

CC50 at 72 h recorded for this compound, O=C1CN(/N=C/c2ccc([N+](=O)[O-])o2)C(=O)N1 [Nitrofurantoin, nitrofurantoin] , is 73 µM
